Test system: Y16 cells
Assay: IL-5 signal inhibition: rIL-5-dependent Y16 growth inhibition (WST-1)
Format: cell-based, mouse
Conditions: rIL-5 5 units/mL, 24 hours, antibody 0.01-10 μg/mL; FIG. 14
QUANTITY KIND: inhibition of Y16 cell growth (IL-5 signal-inhibiting function)

KM8808: core fucose-deficient anti-dinitrophenol (DNP) rat/human chimeric antibody, isotype control (antibody, V domains shown) VH: EVQLQESGPGLVKPSQSLSLTCSVTGYSITSGYWNWIRKFPGNKMEWIGYISYSGSTYYNPSLKSRISITRDTSKNQFFLQLNSVTTEDTATYYCARWGVRHYFDYWGQGVMATVSS VL: DVVMTQTPVSLPVSLGGQASISCRSSQSLANSYGNTYLSWYLQKPGQSPQLLIYRVSNTFSGVPDRFSGSGSGTDFTLKISRVEPEDLGDYYCLQGTHQPYTFGAGTKLELK    not observed
KM6161: N-linked sugar chain-deficient anti-DNP rat/human chimeric antibody containing N297A substitution, isotype control (antibody, V domains shown) VH: EVQLQESGPGLVKPSQSLSLTCSVTGYSITSGYWNWIRKFPGNKMEWIGYISYSGSTYYNPSLKSRISITRDTSKNQFFLQLNSVTTEDTATYYCARWGVRHYFDYWGQGVMATVSS VL: DVVMTQTPVSLPVSLGGQASISCRSSQSLANSYGNTYLSWYLQKPGQSPQLLIYRVSNTFSGVPDRFSGSGSGTDFTLKISRVEPEDLGDYYCLQGTHQPYTFGAGTKLELK    not observed
